Biological target: CYP3A4 (Homo sapiens)
Construct: purchased Invitrogen
Sequence (P08684 2-503 limits assumed): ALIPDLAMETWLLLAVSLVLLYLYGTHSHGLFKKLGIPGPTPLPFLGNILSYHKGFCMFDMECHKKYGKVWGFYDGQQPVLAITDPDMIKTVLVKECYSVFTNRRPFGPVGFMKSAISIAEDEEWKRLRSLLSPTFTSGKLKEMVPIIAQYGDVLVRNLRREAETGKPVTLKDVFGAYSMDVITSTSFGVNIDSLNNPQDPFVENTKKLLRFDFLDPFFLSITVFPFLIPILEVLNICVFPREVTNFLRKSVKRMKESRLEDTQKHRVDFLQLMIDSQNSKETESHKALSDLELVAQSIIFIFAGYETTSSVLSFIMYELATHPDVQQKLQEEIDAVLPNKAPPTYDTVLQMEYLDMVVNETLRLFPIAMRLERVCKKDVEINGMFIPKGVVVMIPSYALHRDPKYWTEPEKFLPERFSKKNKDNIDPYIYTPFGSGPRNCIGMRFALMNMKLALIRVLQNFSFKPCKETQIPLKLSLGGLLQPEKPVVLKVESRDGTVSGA
Assay: In-Vitro Cytochrome P450 (CYP450) Inhibition Assay (Vivid CYP450)
Format: in vitro ADME
Details: CYP3A4 enzyme complex (Vivid CYP450, Invitrogen), 6 μM test concentration
Text: We evaluated interaction of drug candidates with cytochrome P450 enzymes which are a major determinant of drug clearance via oxidative metabolism using a high throughput compatible, fluorescence based CYP450 screening assay (Vivid® CYP450, Invitrogen) according to manufacturer's directions. […]
test_readout: inhibition at 1 hour, 6 µM

compound: O=C(O)CCNCCCc1cc(Cl)ccc1Oc1cc(F)c(S(=O)(=O)Nc2cscn2)cc1F [Compound 22]
result: 0 to 25%
//
compound: NC(CCNCCCc1cc(Cl)ccc1Oc1cc(F)c(S(=O)(=O)Nc2cscn2)cc1Cl)C(=O)O (stereo not drawn) [Compound 17]
result: 0 to 25%
//
compound: O=C(O)C1CCCN(CCCc2cc(Cl)ccc2Oc2cc(F)c(S(=O)(=O)Nc3cscn3)cc2Cl)C1 (stereo not drawn) [Compound 19]
result: 0 to 25%
//
compound: C[C@@H](NC(=O)c1cc(-c2cc(Cl)ccc2Oc2cc(F)c(S(=O)(=O)Nc3ncns3)cc2Cl)ccn1)C(=O)O [Compound 6]
result: 25 to 50%
//
compound: O=C(O)CCNC(=O)c1cc(-c2cc(Cl)ccc2Oc2cc(F)c(S(=O)(=O)Nc3ncns3)cc2Cl)ccn1 [Compound 1]
result: 50 to 100%

Inquiry: Reported inhibition at 1 hour, 6 µM, compound O=C(O)CCNCCCc1cc(Cl)ccc1Oc1cc(F)c(S(=O)(=O)Nc2ncns2)cc1Cl [Compound 12] : ____
Reply text: 50 to 100%

Inquiry: Reported inhibition at 1 hour, 6 µM, compound O=C(O)CNCCCc1cc(Cl)ccc1Oc1cc(F)c(S(=O)(=O)Nc2cscn2)cc1F [Compound 21] : ____
Reply text: 0 to 25%

Inquiry: Reported inhibition at 1 hour, 6 µM, compound O=C(O)CCNC(=O)c1cc(-c2cc(Cl)ccc2Oc2cc(F)c(S(=O)(=O)Nc3ncns3)cc2F)ccn1 [Compound 10] : ____
Reply text: 25 to 50%

Inquiry: Reported inhibition at 1 hour, 6 µM, compound O=C(O)CCNCCCc1cc(Cl)ccc1Oc1cc(F)c(S(=O)(=O)Nc2cscn2)cc1Cl [Compound 15] : ____
Reply text: 0 to 25%

Inquiry: Reported inhibition at 1 hour, 6 µM, compound O=C(O)CNCCCc1cc(Cl)ccc1Oc1cc(F)c(S(=O)(=O)Nc2nccs2)cc1F [Compound 18] : ____
Reply text: 0 to 25%

Inquiry: Reported inhibition at 1 hour, 6 µM, compound O=C(O)CNCCCc1cc(Cl)ccc1Oc1cc(F)c(S(=O)(=O)Nc2cscn2)cc1Cl [Compound 11] : ____
Reply text: 0 to 25%

Inquiry: Reported inhibition at 1 hour, 6 µM, compound O=C(O)CNC(=O)c1cc(-c2cc(Cl)ccc2Oc2cc(F)c(S(=O)(=O)Nc3ncns3)cc2Cl)ccn1 [Compound 2] : ____
Reply text: 50 to 100%
